# Read-out: UDP glucuronosyltransferase (UGT1A1), UGT1A1 (gene 54658)
# METHOD SUMMARY: LTEA_HepaRG_UGT1A1: Life Technologies and Expression Analysis (LTEA) Assay for UDP glucuronosyltransferase (UGT1A1) using HepaRG (AID 2283538)
# RUN CONDITIONS: mRNA level, 48 h; actives raise or lower the signal
Activity calls are given as the source filed them. Rule for the calls: active = hit-call score of the fitted dose curve at least 0.9, where 1 is the maximum; inactive = score below 0.9.
Please respond with reported AC50 for every item in the list.

CC(C)(C)c1cc(/C=C2\SC(N)=NC2=O)cc(C(C)(C)C)c1O | 93.5 µM (active)

Go through the items and report each one's AC50.
1. Cc1c2ccccc2c(C)c2c1ccc1ccccc12
2. O=C(O)Cc1cc(I)c(Oc2ccc(O)c(I)c2)c(I)c1
3. CN1C(=O)N(c2ccccc2Br)Cc2cnc(Nc3ccc4c(c3)OCC(CO)O4)nc21 (stereo not drawn)
4. O=C1c2ccccc2C(=O)N1CCc1noc(-c2ccc(CN3CCCCCC3)s2)n1
5. CO[C@H]1/C=C/O[C@@]2(C)Oc3c(C)c(O)c4c(O)c(c(/C=N/N5CCN(C)CC5)c(O)c4c3C2=O)NC(=O)/C(C)=C\C=C\[C@H](C)[C@H](O)[C@@H](C)[C@@H](O)[C@@H](C)[C@H](OC(C)=O)[C@@H]1C
6. C[C@]12CC[C@@H]3c4ccc(O)cc4CC[C@H]3[C@@H]1CCC2=O
7. O=C(O)Cn1c(=O)n(Cc2ccc(Br)cc2F)c(=O)c2ccc(Cl)cc21
8. NCc1cccc(C2CCN(C(=O)c3ccc(C#Cc4ccccc4F)o3)CC2)c1

Reply text:
["0.714 µM (active)", "95.7 µM (active)", "85.6 µM (active)", "17.8 µM (active)", "0.395 µM (active)", "5.13 µM (active)", "17.7 µM (active)", "86.3 µM (active)"]

Go through the items and report each one's AC50.
1. CCCOC(=O)c1cc(O)c(O)c(O)c1
2. CCCCCCCCCCCC[N+](C)(C)C
3. CC(C)(c1cc(Br)c(O)c(Br)c1)c1cc(Br)c(O)c(Br)c1

Reply text:
1.73 µM (active)
88.3 µM (active)
78.2 µM (active)

// data source = PubChem BioAssay (EPA / NIEHS)
